biological target: Fc-fusion protein of human PSMA (hPSMA-Fc) (Homo sapiens, UniProt Q04609); construct: purchased Acro Biosystems PSA-H5264; experiment: Surface plasmon resonance assay (Biacore T200, single cycle kinetic); type: binding; conditions: pKD category for PSMA SPR activity assay, hPSMA-Fc, 25° C.; read-out: pKD CAT (converted)
Sequence (Q04609 44-750 limits assumed): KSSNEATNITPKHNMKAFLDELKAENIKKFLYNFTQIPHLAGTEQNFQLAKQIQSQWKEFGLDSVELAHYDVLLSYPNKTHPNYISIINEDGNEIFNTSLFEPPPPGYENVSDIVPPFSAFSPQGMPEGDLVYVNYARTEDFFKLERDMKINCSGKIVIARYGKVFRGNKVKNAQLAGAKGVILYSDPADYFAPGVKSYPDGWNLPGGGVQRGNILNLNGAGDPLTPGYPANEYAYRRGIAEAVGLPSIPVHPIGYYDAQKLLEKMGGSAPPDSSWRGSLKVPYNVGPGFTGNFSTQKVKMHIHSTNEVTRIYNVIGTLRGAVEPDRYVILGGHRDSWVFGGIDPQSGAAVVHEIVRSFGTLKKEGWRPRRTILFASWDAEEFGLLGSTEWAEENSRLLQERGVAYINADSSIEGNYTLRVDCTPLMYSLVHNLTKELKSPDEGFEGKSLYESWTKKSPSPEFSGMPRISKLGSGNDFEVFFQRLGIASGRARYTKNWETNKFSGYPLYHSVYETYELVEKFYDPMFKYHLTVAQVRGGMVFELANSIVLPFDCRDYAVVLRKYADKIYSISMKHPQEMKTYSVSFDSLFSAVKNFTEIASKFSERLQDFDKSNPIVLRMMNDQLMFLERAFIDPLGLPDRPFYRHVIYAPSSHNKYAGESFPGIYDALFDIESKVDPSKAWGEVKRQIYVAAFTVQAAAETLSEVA
Numbered stars: 1 amine (or outer) side, 2 acyl side, 3 side chain; on linkers, the order of the positions; unused ones are H or OH. Bridge positions count the residues as written; N and C are the ends. Square brackets hold non-standard residues; d marks the D form. Side chains are listed from the residue outwards. Peptide text beside a SMILES is read from it. * marks the point of attachment. X3 = O=C(O)CN1CCN(CC(=O)O)CCN(CC(=O)NCCCOCCOCCOCCCN*)CCN(CC(=O)O)CC1; DOTA = O=C(O)CN1CCN(CC(=O)O)CCN(CC(=O)*)CCN(CC(=O)O)CC1; Trp(6-Cl) = N[C@@H](Cc1c[nH]c2cc(Cl)ccc12)C(=O)O; Phe(4-Cl) = N[C@@H](Cc1ccc(Cl)cc1)C(=O)O; Arg(Me) = CNC(=N)NCCC[C@H](N)C(=O)O; Ethylenediamine = C(CN[*:2])N[*:1]; NMeT = CN[C@H](C(=O)O)[C@@H](C)O; X1 = O=C(CC1CCN([*:1])CC1)[*:2]; Aad = N[C@@H](CCCC(=O)O)C(=O)O; Lys(Me) = CNCCCC[C@H](N)C(=O)O; Suc = O=C(CCC(=O)[*:2])[*:1]; Tle = CC(C)(C)[C@H](N)C(=O)O; αMeP = C[C@@]1(C(=O)O)CCCN1; NHCH2CH2NHMe = CNCCN*; Aib = CC(C)(N)C(=O)O
metric name: Kd

# molecule, metric name, val
rows = [
    ("CC(=O)N[C@H](C(=O)N1CCC[C@@]1(C)C(=O)N[C@@H](Cc1ccccc1)C(=O)N[C@H]1CSSC[C@@H](C(=O)N[C@H](C(=O)N[C@H](C(N)=O)[C@@H](C)O)C(C)(C)C)NC(=O)[C@H](CC(N)=O)NC(=O)C(C)(C)NC(=O)[C@H](CCCNC(=N)N)NC(=O)[C@H](CCCCN)NC1=O)[C@@H](C)O [PSM-0508] (Ac-T[αMeP]FCKR[Aib]NC[Tle]T-NH2; disulfide 4-9)", "Kd", "< 12.6 nM"),
    ("CC(=O)N[C@H](C(=O)NC(C)(C)C(=O)N[C@@H](Cc1ccccc1)C(=O)N[C@H]1CSSC[C@@H](C(=O)N[C@H](C(=O)N[C@H](C(N)=O)[C@@H](C)O)C(C)(C)C)NC(=O)[C@H](CC(N)=O)NC(=O)[C@H](CCCCNC(=O)CCC(=O)NCCCOCCOCCOCCCNC(=O)CN2CCN(CC(=O)O)CCN(CC(=O)O)CCN(CC(=O)O)CC2)NC(=O)[C@H](CCC(N)=O)NC(=O)[C@H](CCCCN)NC1=O)[C@@H](C)O [PSM-0423] (Ac-T[Aib]FCKQK([Suc-X3])NC[Tle]T-NH2; disulfide 4-9)", "Kd", "12.6 to 126 nM"),
    ("CNCCNC(=O)[C@@H](NC(=O)[C@@H]1CSSC[C@H](NC(=O)[C@H](Cc2ccc(Cl)cc2)NC(=O)C(C)(C)NC(=O)[C@@H](NC(=O)CC2CCN(C(=O)CN3CCN(CC(=O)O)CCN(CC(=O)O)CCN(CC(=O)O)CC3)CC2)[C@@H](C)O)C(=O)N[C@@H](CCCCN)C(=O)N[C@@H](CCCNC(=N)N)C(=O)NC(C)(C)C(=O)N[C@@H](CC(N)=O)C(=O)N1)C(C)(C)C [PSM-0456] ({DOTA}-[X1]T[Aib][Phe(4-Cl)]CKR[Aib]NC[Tle]-NHCH2CH2NHMe; disulfide 5-10)", "Kd", "12.6 to 126 nM"),
    ("CNCCCC[C@@H]1NC(=O)[C@@H](NC(=O)[C@H](Cc2c[nH]c3cc(Cl)ccc23)NC(=O)C(C)(C)NC(=O)[C@@H](NC(=O)CC2CCN(C(=O)CN3CCN(CC(=O)O)CCN(CC(=O)O)CCN(CC(=O)O)CC3)CC2)[C@@H](C)O)CSSC[C@@H](C(=O)N[C@H](C(N)=O)C(C)(C)C)NC(=O)[C@H](CC(N)=O)NC(=O)C(C)(C)NC(=O)[C@H](CCCNC(=N)NC)NC1=O [PSM-0390] ({DOTA}-[X1]T[Aib][Trp(6-Cl)]C[Lys(Me)][Arg(Me)][Aib]NC[Tle]-NH2; disulfide 5-10)", "Kd", "< 12.6 nM"),
]

Prompt: What value of Kd has been recorded for this entry: CC(=O)N[C@H](C(=O)NC(C)(C)C(=O)N[C@@H](Cc1ccccc1)C(=O)N[C@H]1CSSC[C@@H](C(=O)N[C@H](C(=O)N[C@H](C(=O)N[C@@H](CC(=O)O)C(N)=O)[C@@H](C)O)C(C)(C)C)NC(=O)[C@H](CC(N)=O)NC(=O)[C@H](CCCCNC(=O)CCC(=O)NCCCOCCOCCOCCCNC(=O)CN2CCN(CC(=O)O)CCN(CC(=O)O)CCN(CC(=O)O)CC2)NC(=O)[C@H](CCCNC(=N)N)NC(=O)[C@H](CCCCN)NC1=O)[C@@H](C)O [PSM-0542] (Ac-T[Aib]FCKRK([Suc-X3])NC[Tle]TD-NH2; disulfide 4-9)
Completion: < 12.6 nM

Prompt: And the next one, C[C@@H](O)[C@H](NC(=O)[C@@H](NC(=O)[C@@H]1CSSC[C@H](NC(=O)[C@H](Cc2ccc(Cl)cc2)NC(=O)C(C)(C)NC(=O)[C@@H](NC(=O)CC2CCN(C(=O)CN3CCN(CC(=O)O)CCN(CC(=O)O)CCN(CC(=O)O)CC3)CC2)[C@@H](C)O)C(=O)N[C@@H](CCCC(N)=O)C(=O)N[C@@H](CCCNC(=N)N)C(=O)NC(C)(C)C(=O)N[C@@H](CC(N)=O)C(=O)N1)C(C)(C)C)C(N)=O [PSM-0485] ({DOTA}-[X1]T[Aib][Phe(4-Cl)]C[Aad](NH2)R[Aib]NC[Tle]T-NH2; disulfide 5-10) ?
Completion: < 12.6 nM

Prompt: Param item: CC(=O)NC(C)(C)C(=O)N[C@@H](Cc1ccccc1)C(=O)N[C@H]1CSSC[C@@H](C(=O)N[C@H](C(=O)N[C@H](C(=O)N[C@@H](CC(=O)O)C(N)=O)[C@@H](C)O)C(C)(C)C)NC(=O)[C@H](CC(N)=O)NC(=O)[C@H](C)NC(=O)[C@H](CCCNC(=N)N)NC(=O)[C@H](CCCCN)NC1=O [PSM-0506] (Ac-[Aib]FCKRANC[Tle]TD-NH2; disulfide 3-8)
Completion: < 12.6 nM

Prompt: Same lookup for C[C@H](NC(=O)[C@H]([C@@H](C)O)N(C)C(=O)CC1CCN(C(=O)CN2CCN(CC(=O)O)CCN(CC(=O)O)CCN(CC(=O)O)CC2)CC1)C(=O)N[C@@H](Cc1ccc(Cl)cc1)C(=O)N[C@H]1CSSC[C@@H](C(=O)N[C@H](C(=O)N[C@H](C(N)=O)[C@@H](C)O)C(C)(C)C)NC(=O)[C@H](CC(N)=O)NC(=O)C(C)(C)NC(=O)[C@H](CCCNC(=N)N)NC(=O)[C@H](CCCCN)NC1=O [PSM-0455] ({DOTA}-[X1][NMeT]A[Phe(4-Cl)]CKR[Aib]NC[Tle]T-NH2; disulfide 5-10) , please.
Completion: 126 to 501 nM

Prompt: Entry to check: CNCCCC[C@@H]1NC(=O)[C@@H](NC(=O)[C@H](Cc2ccc(Cl)cc2)NC(=O)C(C)(C)NC(C)=O)CSSC[C@@H](C(=O)N[C@H](C(=O)NCCNC(=O)CN2CCN(CC(=O)O)CCN(CC(=O)O)CCN(CC(=O)O)CC2)C(C)(C)C)NC(=O)[C@H](CC(N)=O)NC(=O)C(C)(C)NC(=O)[C@H](CCCNC(=N)NC)NC1=O [PSM-0481] (Ac-[Aib][Phe(4-Cl)]C[Lys(Me)][Arg(Me)][Aib]NC[Tle]-{Ethylenediamine-DOTA}; disulfide 3-8)
Completion: < 12.6 nM

###

Target: Fc-fusion protein of human PSMA (hPSMA-Fc) (Homo sapiens, UniProt Q04609)
Construct: purchased Acro Biosystems PSA-H5264
Assay: Surface plasmon resonance assay (Biacore T200, single cycle kinetic)
Assay type: binding
Conditions: pKD category for PSMA SPR activity assay, hPSMA-Fc, 25° C.; read-out: pKD CAT (converted)
Method: Surface plasmon resonance (SPR) studies were performed using a Biacore™ T200 SPR system. Briefly, polarized light is directed towards a gold-labeled sensor surface, and minimum intensity reflected light is detected. […] For each test compound, SPR raw data in the form of resonance units (RU) were plotted as sensorgrams using the Biacore™ T200 control software. […] The pKD value (negative decadic logarithm of dissociation constant) was calculated using Microsoft Excel.
Numbered stars: 1 amine (or outer) side, 2 acyl side, 3 side chain; on linkers, the order of the positions; unused ones are H or OH. Bridge positions count the residues as written; N and C are the ends. Square brackets hold non-standard residues; d marks the D form. Peptide text beside a SMILES is read from it. * marks the point of attachment. DOTA = O=C(O)CN1CCN(CC(=O)O)CCN(CC(=O)*)CCN(CC(=O)O)CC1; Phe(3-Cl) = N[C@@H](Cc1cccc(Cl)c1)C(=O)O; X1 = O=C(CC1CCN([*:1])CC1)[*:2]; Tle = CC(C)(C)[C@H](N)C(=O)O; Aib = CC(C)(N)C(=O)O; CO = O=C([*:1])[*:2]; NHBu = CCCCN*
metric name: Kd

Prompt: Param item = CCCCNC(=O)N[C@H](C(=O)NC(C)(C)C(=O)N[C@@H](Cc1cccc(Cl)c1)C(=O)N[C@H]1CSSC[C@@H](C(=O)N[C@H](C(=O)N[C@H](C(=O)N2CCC(CC(=O)N[C@H](CCCCNC(=O)CN3CCN(CC(=O)O)CCN(CC(=O)O)CCN(CC(=O)O)CC3)C(N)=O)CC2)[C@@H](C)O)C(C)(C)C)NC(=O)[C@H](CC(N)=O)NC(=O)C(C)(C)NC(=O)[C@H](CCCNC(=N)N)NC(=O)[C@H](CCCCN)NC1=O)[C@@H](C)O [PSM-0470] ({NHBu-CO}-T[Aib][Phe(3-Cl)]CKR[Aib]NC[Tle]T[X1][dK](DOTA)-NH2; disulfide 4-9) ; retrieve measured Kd.
Completion: < 12.6 nM
